# ASSAYED TARGET: Na^+,K^+ -ATPase (Homo sapiens, UniProt P05023)
# Construct: receptor purified according to Jorgensen (Jorgensen P., BBA, 1974,356, 36); from tissue
# METHOD: inhibition of the activity of the purified Na+,K+-ATPase, measured as % of hydrolysis of 32P-ATP
# Assay type: biochemical
# COND: read-out: Inhibitory Activity log IC50 (converted)

COMPOUND	UNIT SYMBOL	IC50
OC1(CCc2ccoc2)CCC2(CCC(OCCN3CCCC3)CC2)CC1 (centres unmarked)	µM	100
c1cc(CCC2CCC3(CC2)CCC(OCCN2CCCC2)CC3)co1 (centres unmarked)	µM	15.8
c1cc(CC2CCC3(CCC(CSCCN4CCCC4)CC3)CC2)co1 (centres unmarked)	µM	100
OC1(Cc2ccoc2)CCC2(CCC(COCCN3CCCC3)CC2)CC1 (centres unmarked)	µM	15.8
N=C(N)NN=C1CCC2(CC1)CCC(CO)CC2 (centres unmarked)	µM	100
NCCSCC1CCC2(CC1)CCC(Cc1ccoc1)CC2 (centres unmarked)	µM	15.8
c1cc(CCC2CCC3(CC2)CCC(OCCCN2CCCC2)CC3)co1 (centres unmarked)	µM	50.1
c1cncc(CCC2CCC3(CC2)CCC(OCCN2CCCC2)CC3)c1 (centres unmarked)	µM	100
